# System: MS2 coat protein
# ASSAY DETAILS: apparent KD of MS2 coat protein; higher = weaker reporter binding
# CONDITION LABEL: Eterna round: R107; input ligand: theophylline 20 uM
Consider the following sequences; for each one, report its apparent KD of MS2 coat protein.
The reply should be a number in nM, with the unit left off.

Query block: Endpoint output: apparent KD of MS2 coat protein of AUCCAUAGCCGAAGGAGCGCAGUAGGAUGACAUGAGGAUCACCCAUGUGUGUGAUGUGGAUUGCAGGUAGGUCGCGGAGUGGGUU [Exclusion - Arginine B (Freestyle 7)] . Value?
Result block: 124

Query block: Endpoint output: apparent KD of MS2 coat protein of GAUGCACAUGAGGAUCACCCAUGUCCUGAUACCAGAACGCGACUUUUCCCUUGGCAGCAGAAUUCACUUUUUUACAUUCAUACUG [theeternabot_sameState_MS2_Theo_A_11] . Value?
Result block: 30.6

Query block: Endpoint output: apparent KD of MS2 coat protein of GCAUCCUAGUCGGCCGCCACUGGGUGUACCCAGUGCUGGUACAAACAUGAGGAUCACCCAUGUACCAGGACCGGGACUAGGAUGC [(Trp1)-(MT2)''-(T1)'-(MT2)'-(Ms2)-(Trp2)_Design4] . Value?
Result block: 21.2

Query block: Endpoint output: apparent KD of MS2 coat protein of ACAUGAGGAUCACCCAUGUCAGGGCACGAUACCAGCUGAUCCGGUGGCCCUUGGCAGCGUGACGUGUGGUCAUGAGGAUCACCCG [wsmullin] . Value?
Result block: 642

Query block: Endpoint output: apparent KD of MS2 coat protein of AAGACUGGACAUAAGUCCAGUCAACCUGAAGGAGCGGGUGGGUGCCCAGGUAGGUCGCGGGAACAUGAGGAUCACCCAUGUAUAA [ArgAS 5 #BothOrNeither #OpenEnded] . Value?
Result block: 16.9

Query block: Endpoint output: apparent KD of MS2 coat protein of CCUAACCGAUCGGCCGCCACUGACCGGUACCUCUUCGAAACCCGCCACAUGAGGAUCACCCAUGUCAGGACCGGGAUUGCACAGG [Inxeus] . Value?
Result block: 23

Query block: Endpoint output: apparent KD of MS2 coat protein of UGUAUGUGAUUUGAUACCAGACCAGCUGGUGUUAUAUGAGGAUCACCCAUAUAGGUUUGGGUCCCUUGGCAGCAAAUCGCAUACU [SS Theo B #24 Ms14] . Value?
Result block: 38.8

Query block: Endpoint output: apparent KD of MS2 coat protein of ACAUUUAACUGAAGGAGCGUGAAUAACAUGAGGAUCACCCAUGUAACUUAGAUUCUUAUAUCACAGGUAGGUCGCAGACUAAUGA [JR_ExcArginiB_Sub012] . Value?
Result block: 25.7

Query block: Endpoint output: apparent KD of MS2 coat protein of AACACACCAAAUGAUACCAGCUACAACAUGAUACAAAACCACAUGAGGAUCACCCAUGUAAGCCCUUGGCAGCAUACUACUGUAA [theeternabot_exclusion_MS2_Theo_B_40] . Value?
Result block: 24.2

Query block: Endpoint output: apparent KD of MS2 coat protein of AAACGUUGCUGCGAUACCAGACAUGAGGAUCACCCAUGUACCAAGAAAACGUACAUAAAUGUCCCUUGGCAGCGCAGCAACGAAA [MAT - Exclusion Theophlline B - Mod of Eli - D28] . Value?
Result block: 511

Query block: Endpoint output: apparent KD of MS2 coat protein of ACAUGAGGAUCACCCAUGUAAUACCGGGAAGGAGCGCGUAAGGACGCAGGUAGGUCGCUCGGCGUCCGGCCGCAAGGCCGGACGA [#1 Same State - Arginine A Attempt #12 (HarryS)] . Value?
Result block: 24.3

---

# Test system: MS2 coat protein
# ASSAY DETAILS: apparent KD of MS2 coat protein; higher = weaker reporter binding
# CONDITION LABEL: Eterna round: R107; input ligand: theophylline 2 mM
MEASURED PARAMETER: apparent KD of MS2 coat protein (µM)
The reply should be a number in µM, with the unit left off.

Query block: Endpoint output: apparent KD of MS2 coat protein of ACUAGAGGUGGAAGGAGCGGGAGACAUGAGGAUCACCCAUGUGAAGUUUCGAGAGGAUCAUCCCAGGUAGGUCGCCAUGUCGAAA [vvbvmullin] . Value?
Result block: 0.0616

Query block: Endpoint output: apparent KD of MS2 coat protein of UCGGGCAGAGCGGCCGCCACUGUAUGGCGUGCGGAUGACGGAACAUGAGGAUCACCCAUGUUGUUUAGGACCGGGCUUGCCGCGA [cocmullin] . Value?
Result block: 0.0115

Query block: Endpoint output: apparent KD of MS2 coat protein of GCGACACUCACGGCCGCCACUGAUUAGCCCAGUAUGGAGCCCACACAUGAGGAUCACCCAUGUCACAGGACCGGGUGGGUCUAUU [theeternabot_sameState_MS2_Trp_B_23] . Value?
Result block: 0.0255

Query block: Endpoint output: apparent KD of MS2 coat protein of AUUGUCGUGUCGGCCGCCACUGUCAUGGUUUUCGUGGAAAACAUGAGGAUCACCCAUGUAAUUGACAGGACCGGGACAUGGCGGC [Ricegesoer] . Value?
Result block: 0.0094

Query block: Endpoint output: apparent KD of MS2 coat protein of UCACGACGGAUGGAUACCAGCGACAUGAGGAUCACCCAUGUAUGAGGAUCAGCCAUGUUAUGCCCUUGGCAGCCACGAAGGUCAU [YYYMULLIN] . Value?
Result block: 0.195

Query block: Endpoint output: apparent KD of MS2 coat protein of GGAUAGGACACGGCCGCCACUAGCUAGGAUACUAGCAACAUUUCCUCAGAUGAGGAUCACCCAUCUAGGACCGGGUGUCCUAUCG . Value?
Result block: 0.0336

Query block: Endpoint output: apparent KD of MS2 coat protein of AAAAUCCUACUUGAGGAUCACCCAGGUGAAGGAGCGCCCGAAAGGGCAGGUAGGUCGCACCUGAGGAUCACCCUGGUAACCUAAA [ArgEX 9 #DoubleMS2 #OpenEnded] . Value?
Result block: 0.211

Query block: Endpoint output: apparent KD of MS2 coat protein of UGUAUGUGAUUUGAUACCAGACCAGCUGGUGUUAUAUGAGGAUCACCCAUAUAGGUUUGGGUCCCUUGGCAGCAAAUCGCAUACU [SS Theo B #24 Ms14] . Value?
Result block: 0.0174

Query block: Endpoint output: apparent KD of MS2 coat protein of UUAUAUAUGCGAAGGAGCGGGAAAUAUAUAUAUAUAAUCCUAACAUGAGGAUCACCCAUGUCCCAGGUAGGUCGCGCAUAUAUGG [12.E] . Value?
Result block: 0.0951

Query block: Endpoint output: apparent KD of MS2 coat protein of UACAUGAGGAUCACCCAUGUCUGAACUGAAGGAGCGCUAAAUAAGGCAGGUAGGUCGCGGAAUUUUGUGUGCAUAUGCAUAUGGG [9.L] . Value?
Result block: 0.0379

Query block: Endpoint output: apparent KD of MS2 coat protein of GCCGCUGCCGCGGUGUGUGUGGGUGGGUGACGAGGACCGGUACGGCCGCCACUCGCGAUCGCACAUGAGGAUCACCCAUGUGUAA [Exclusion Tryp A GF20] . Value?
Result block: 0.0196

Query block: Endpoint output: apparent KD of MS2 coat protein of CCGUUUUAUGGCGACAUAGGGCGGACUGAAGGAGCGGUGAAUAAGCCAGGUAGGUCGCAGAGAUCCACAUGAGGAUCACCCAUGU [!0.aD] . Value?
Result block: 0.0635

Query block: Endpoint output: apparent KD of MS2 coat protein of ACAUGAGGAUCACCCAUGUGAAGGCACGAUACCAGCUGAUCCCGUGGCCCUUGGCAGCGUCCGGUGUGGUCCGGCGGGUGGGACG [bbvmullin] . Value?
Result block: 0.0503

---

# Tested on: K4 kissing-loop RNA reporter;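 note: bound reporter read as fluorescence of individual clusters on recovered sequencing chips by microscopy, with normalized cluster intensities fitted with a binding model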
# ASSAY DETAILS: apparent KD of K4 kissing-loop reporter; higher = weaker reporter binding
# CONDITION LABEL: Eterna round: R107; input ligand: tryptophan 2.4 mM
Consider the following sequences; for each one, report its apparent KD of K4 kissing-loop reporter.

Query block: Endpoint output: apparent KD of K4 kissing-loop reporter of UGACUGGAUGGAAGGAGCGCUAAACUCCUAGUGAUGUUAGGGAUAUGAGGCAAAGCCUCGAGGCAGGUAGGUCGCCAUCUAGUCU [FiskerMod 19 - Jieux - Same State - Arginine B] . Value?
Result block: 122 nM

Query block: Endpoint output: apparent KD of K4 kissing-loop reporter of GAGAUAGAGGCGGCCGCCACUAGUGAUGUUAGUGAUGUUAGAUAGAGAAUAGAACAGAGGUAGGAUAGGACCGGGCCAGAUAGAG [whbob_SS_Tryp_B_w31] . Value?
Result block: 83.7 nM

Query block: Endpoint output: apparent KD of K4 kissing-loop reporter of UGAUACCAGACUGAUACCAGCUAGUGAUGUUAGCUGAAAUCAGGGUCAAAGACCCUGUCUGGCCCUUGGCAGCAGUCUGGUAUCU [TheoBX 18 #SwitchBubble #StaticStem] . Value?
Result block: 71.2 nM

Query block: Endpoint output: apparent KD of K4 kissing-loop reporter of ACUUGAGCACAAAGCACACCAAGCAGUAGGUAGGAUAUCCGGCUUAGGAGAAGGACCAUGCAGUGAUGUUGCAUGCUCCUCCAUG [Onraordi] . Value?
Result block: 93 nM

Query block: Endpoint output: apparent KD of K4 kissing-loop reporter of GCCGUACGCAUGGAUACCAGUCAAGAUCAGUGAUGUUGAUCUUUUAUAGAGCCUUCAUUAGACCCUUGGCAGCCAUGCGUACGGC . Value?
Result block: 250 nM

Query block: Endpoint output: apparent KD of K4 kissing-loop reporter of GAGGUACAGCUGGCCGUCGAAUUGUCCGAUACCAGACACUCUCUAGUCCCUUGGCAGCGGUGGUAAGUGAUGUUUACAGGCGCCG [theeternabot_exclusion_KL_Theo_A_3] . Value?
Result block: 126 nM
